Values were extracted from patent US9765074B2.

# targetDesc: hROMK (hKir1.1) (Homo sapiens, UniProt P48048)
# Sequence (P48048 whole entry): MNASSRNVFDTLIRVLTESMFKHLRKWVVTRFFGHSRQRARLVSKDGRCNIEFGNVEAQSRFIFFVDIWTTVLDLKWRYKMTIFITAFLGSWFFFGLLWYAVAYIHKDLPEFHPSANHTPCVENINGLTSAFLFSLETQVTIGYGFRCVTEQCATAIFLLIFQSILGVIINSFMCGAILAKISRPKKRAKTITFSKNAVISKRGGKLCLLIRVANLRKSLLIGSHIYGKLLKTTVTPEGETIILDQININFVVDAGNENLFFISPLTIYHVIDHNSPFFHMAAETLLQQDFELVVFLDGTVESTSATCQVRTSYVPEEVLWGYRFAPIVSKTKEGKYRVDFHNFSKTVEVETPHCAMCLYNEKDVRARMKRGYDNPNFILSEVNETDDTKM
# assayText: Thallium Flux Assay (ROMK channel functional thallium flux, FLIPR-Tetra)
# conditions: HEK293 cells stably expressing hROMK (hKir1.1); 30 min compound incubation
readoutLabel: IC50 (nM)

CC1=C(N2CCC3(CCN(C[C@H](F)c4ccc(-n5cnnn5)cn4)CC3)C2=O)COC1=O [Example 279]; 20
Cc1nc(-n2cnnn2)ccc1[C@H](O)CN1C2CCC1CC1(CCN(C3=CC(=O)OC3)C1=O)C2 (stereo partly shown) [Example 42]; 20

1 = CC1=C(N2CCC3(CCN(C[C@@H](F)c4ccc(-n5cnnn5)cn4)CC3)C2=O)COC1=O [Example 280]
2 = CO[C@@H](CN1CCC2(CC1)CCN(C1=C(C)C(=O)OC1)C2=O)c1ccc(-n2cnnn2)cn1 [Example 282]
**Query** Among 1 and 2 , whose measured IC50 is the smaller figure? // return label of chosen record
**Result** 1
(1: 30 nM, 2: 70 nM)
